Where these numbers come from: the nanobody polyreactivity screen of Harvey et al. (2022)

- ASSAY EXPLANATION: yeast display, Sf9 membrane polyspecificity reagent, FACS + sequencing; frameworks hold sequencing errors
ENDPOINT LABEL: polyreactivity (PSR sort gate)

RESIDUES	polyreactivity (PSR sort gate)
QVQLVESGGGLVQAGGSLRLSCAASGRTFRRYAMGWYRQAPGKERELVASISTSGGSTYADSVKGRFTISRDNAKNTVYLQMNSLKPEDTAVYYCAVRSPRYVRNGDYWGQGTQVTVSS	high polyreactivity
QVQLVESGGGLVQAGGSLRLSCAASGRTFGRYAMVWSRQAPGKERELVAAITRGGGSTYYADSVKGRFTISRDNAKYTVYLQMNSLKPEDTAVYYCAARNFRSPYGYDYWGQGTQVTVSS	high polyreactivity
QVQLVESGGGLVQAGGSLRLICAASGSTIVWNAMGWYRQAPGKERELVATITLSTGSTYYADSVKGRFTISRDNAKNTVYLQMNSLKPEDTAVYYCNTEIYVDIISVYGYWGQGTQVTVSS	low polyreactivity
QVQLVESGGGLVQAGGSLRLSCAASGIIFWWYAMGGDRQAPGKERELVAAISGTGGSTYYADSVKGRFTISRDNAKNTVYLQMNTLKPEDTAVSYCPARGTSSSYYDYDYWGQGTQVTVSS	low polyreactivity

Let us move to another entry and its polyreactivity (PSR sort gate).
## Task So what's the measured polyreactivity (PSR sort gate) for this one? `QDQLVESGGGLVQAGGSLRLSCAASVRIFWLYAMGWYRQAPGKERELVAVISWSGGTTYYADSVKGRFTISRDNAKNTVYLQMNSLKPEDTAVYSCAAQVGFYTNYREFDYWGQGTQVTVSS`
## Result low polyreactivity

###

- ASSAY EXPLANATION: yeast display, Sf9 membrane polyspecificity reagent, FACS + sequencing; frameworks hold sequencing errors
ENDPOINT LABEL: polyreactivity (PSR sort gate)

RESIDUES	polyreactivity (PSR sort gate)
QVQLVESGGGLVHAGGSLRLSCAASGSNFNINAMGWYRQAPGKERELVAAITTSGGRTYYSDSVKGRFTISRDNAKNTVYLQMNSLKPEDTAVYYCNARHLPGSRSWRWITYDYWGQGTQVTVSS	low polyreactivity
QVQLVESGGGLGQAGGSLRLSCAASGSIFERNAMGWYRQAPGKERELVAAISSSGVSTYYADSVKGRFTISRDNAKNTVYLQMNSLKPEDTAVYYCNAVWRLRVRYGYWGQGTQVTVSS	high polyreactivity
QVQLVESGGGLVQAGGSLRLSCAASGRIFKRYAKGWYRQAPGKERELVAAISGSGGSTSYADSVKGRFTLSRDNAKNTVYLQMNSLKPEDTAVYYCNTTPRFIRSIGQGNYWVQGTQVTVSS	high polyreactivity
QVQLVESGGGLVQAGGSLRLSCAASGRTSSRNAMGWYRQAPGKERELVAAISQSGGSTYYADSVKGRFTISRDNAKNTVYLQMNSLKPEDTAVYYCAKEYKPQSYPTYYNYYYWGQGTQVTVSS	low polyreactivity
QVQLVESGGGLVQAGGSLRLSCAASGRTFAIYAMGWYRQAPGKERELVAAISGSGGSTYYADSVKGRFTISRDNAKNTVYLQMNSLKPEDTAVYYCAKRVRGHRYDYWGQGTQVTVSS	high polyreactivity

Record polyreactivity (PSR sort gate) for all entries; do not skip any.
1. QVKLVESAVGLVQAGGSLRLSCAASGRTFCSYAMGWYRQAPGKERELVAAISRGGSRTYYADSVKGRFTISRDNAKNTVYLQMNSLKPEDTAVYYCAADPTASGHFLGQVDYWGQGTQVTVSS
2. QVQIVESGGGLVQAGASLRLSCAASGLIFPQKVMGWYIQAPGNERVLVAAISSGTITNYADSVKGRFTISRDNAKNSVYLQMNSLKPEDTADYFCAAEEDKKTFDYWGQGTQVTVSS
3. QVQLVESGGGLVQAGGSLRLSCAASGITFGYYAMGWSRQAPGKERELVAAIRSSGGSTYYADSVKGRFTISRDNAKNNVYLQMNSLKPEDTAVYYCNARYRKSSRPGYEPYERYYWGQGTQVTVSS
4. QVQLVESGGGLVQAGGSLRLSCAASGSTFVAYAKGWYRQAPGKETEWDASISGSGGTTNYADSVKGRFTISRDNAKNTVYLQMNSLKPEDTAVYYCARRYYSVKSRYALNSWGQGTQVTVSS
5. QVQLVESGAGLVQAGGSLRLSCADSGSTFQPYAMGWYRQAPGKEREFVATISGSAGSKYYADSVKGRFKISRDNAKNTVYLQKNSLKPEDTAVYYCNADSGWFGYDYWGQGTQVTVSS
6. QVQLVESRGGLVQAGGSLPLSCAASGFIFTSYAMGWYRQAHGKEREFVAAISGSGGSTYYADSVKGRFTISRDNAKNTVYLQMNSLKPEDTAVYYCAAESWVGYYLYWYDYWGQGTQVTVSS

## Result
1: high polyreactivity; 2: low polyreactivity; 3: high polyreactivity; 4: high polyreactivity; 5: low polyreactivity; 6: high polyreactivity

###

- ASSAY EXPLANATION: yeast display, Sf9 membrane polyspecificity reagent, FACS + sequencing; frameworks hold sequencing errors
ENDPOINT LABEL: polyreactivity (PSR sort gate)

Completed entries (count: 6):
RESIDUES	polyreactivity (PSR sort gate)
QVQLVESGGGLVQAGGSLRLSCAASGIMFTLYAMGWYRQAPGKERELVAAISGSGGSTYYAASVKGRFTISRDTAKKTVNLQMNSLKPEDTAVSYCRLAPRYRTGGYWGQGTQVTVSS	high polyreactivity
QVQLHESGGGLVQAGGSLRLSCAASGTISVTYNMAWYRQAPGKEREFVAGNSTGATTNYADSVKGRFTISRDNAKNTVYLQMNSLKPEDTAVYYCAAHIYRQDHFYYWGQGTQVTVSS	low polyreactivity
QVQLVESGGGLVQAGGSLRLSCAASGSTFIGNAMGRYRQAPGKERELVAAITRSGGSTFYADSVKGRFTISRDYAKNTVYLQMNSLKPEDTAVYYCAARTRRGLARYDYWGQGTQVTVSS	high polyreactivity
QVQLVESGGVLVQAGGSLRLSCAASGSTFGLNAMGWYRQAPGKERELVAAITRSDITNYADSVKGRFTISRDNAKNTVYLQMNSLKPEDTAVYYCAARGLWPYDYWGQGTQVTVSS	low polyreactivity
QDQLVESGGGLVQAGGSLRLSCAASGSIFFARYSMGWYTQAPGKERELVAAITRATSTTYADSVKGRFTISRDNAKNTVYLQMKSLKPEDTAVYYCNADPAYQFDYWGQGTQVTVSS	high polyreactivity
QVQLVESGGGLVQAGGSLRLSCAASGIIFTWYAMGWYRQAPGKERELVAAISGSGDITYYADSVKGRFTSSRDNAKNTVYLQMNSLKPEDTAVYYCAADPWTYWEDYDYWGQGTQVTVSS	low polyreactivity

Respectfully, I request polyreactivity (PSR sort gate) for each entry included below.
1. QVQLVESGGGLVQAGGSLRLSCVASGRTFFRYAMGWYRQAPGKERELVAVITRGGSTYYADSVKGRFTISRDNAKNTVYLQMNSLKPEDTAVYYCNADGRVQRKYDYWGQGTQVTVSS
2. QVQLVESGGGLLQAGGSLRLSCAASGRIFTWNAMGWYRQAPGKERELVARISSGTPTNYADSLKGRFTISRDNAKNTVYLQMNCLKPEDTAVYYCAAQSRPPFVKQYWWQRDYWGQATQVTVSS
3. QVQLVESGGGLVQAGGSLRLSCAASGSTFYYNTMGWYRQAPGKERELVAAISRSGGSTYYADSVKGRFTISRDNAKNTVYLQMNSLKPEDTAVYYCAARIIGARNLYGYWGQGTQVTVSS
4. QVQQQESGGGLVQAGGSLRLSCAASGSIFDGFNMGWYRQAPGKEREFVAAISYGASTYYADIVKGRFTDSRDNAKYSVYLQMIRLKPEDTAVYYCAVYDELYHVLVYWGRGTQVTVSS

## Result
1: high polyreactivity; 2: high polyreactivity; 3: high polyreactivity; 4: low polyreactivity

## Task Data request, read-out polyreactivity (PSR sort gate), for `QVQLVESGGGLVQAGGSLRLSCAASGRTFAYHTMGWYRQAPGKERELVARINSGTSTYYADSVKGRFTISRDNEKNTVYLQMNSLKPEDTAVYYCAARGSESIRWYVGGRYGYWGQGTQVTVSS`
## Result low polyreactivity

###

- ASSAY EXPLANATION: yeast display, Sf9 membrane polyspecificity reagent, FACS + sequencing; frameworks hold sequencing errors
ENDPOINT LABEL: polyreactivity (PSR sort gate)

RESIDUES	ENDPOINT LABEL	RESULT
QVQLVESGGGLVQAGGSLRISFAASGYIFYNYARRSYRQAPGKERELLAAMTRGGSTNYADSVKGRFTISRDNAQNTVYLQMNSLKPEDTAGYYCAAEEGPPWSRYDSWGQGTQVTVSS	polyreactivity (PSR sort gate)	low polyreactivity
QVQLVESGGGLVQAGGSLRLSCAASGSIFDWNAMGWYRQAPGKERELVAAISGTGGTKYADSVKGRFTISRDNAKNTVYLQMISLKPEDTAVYYCAVGLVPLRDGWHFYYEFDSWGQGTQVTVSS	polyreactivity (PSR sort gate)	low polyreactivity
